# testSummary: amyloid nucleation score (Sup35N fusion, yeast selection) (log enrichment); library NNK2; higher = more nucleation; inactive = no reads after selection;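 further: zero at mode of non-aggregating sequences after 7 days selection at 30°C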
valueKind: amyloid nucleation score

>>> reportedresult("DNQGSLDNSSLCTVYSGFSV")
"inactive"
>>> reportedresult("NLRRCSHFHLACP")
"inactive"
>>> reportedresult("LENWSNMGENCSTVDRPNLF")
-0.4

====

# testSummary: amyloid nucleation score (Sup35N fusion, yeast selection) (log enrichment); library NNK2; higher = more nucleation; inactive = no reads after selection
valueKind: amyloid nucleation score

Examples with answers:
>>> reportedresult("DYTNSTAEGFTF")
"inactive"
>>> reportedresult("PEGPERFVFATWPRMHMPSY")
"inactive"
>>> reportedresult("YGASRNWQKNSLVASEYQVG")
"inactive"
>>> reportedresult("FPHLFKSKNPSRNMNSTSPG")
"inactive"
>>> reportedresult("NRTFSQRSVRLVSCPLLSKA")
"inactive"
>>> reportedresult("LASMMPSKIPN")
"inactive"
>>> reportedresult("NIFYRLNGFFQCPRSGLKGC")
"inactive"
>>> reportedresult("CRSTGIDIIYYHISFFLYIW")
"inactive"
>>> reportedresult("LGTLGYTDAILWNYMSHCKG")
"inactive"
>>> reportedresult("GGTVEARSKGILSLSGW")
"inactive"

The sequence listed as FFLNVFDIMRILLYN has a reported amyloid nucleation score of inactive

// amyloid nucleation score lookup, sequence = TTALGRFMFDLCNDDWYSLV , result: inactive

Data point: YSCVDAYG ; amyloid nucleation score = inactive

// sample YHLGSSLLLCI , its amyloid nucleation score was inactive

YSIFHFYLKGFGSTW yielded amyloid nucleation score of inactive

// amyloid nucleation score lookup, sequence = INSLTKAVYYSSHYYPVSLS , result: inactive

====

# testSummary: amyloid nucleation score (Sup35N fusion, yeast selection) (log enrichment); library NNK1; higher = more nucleation; inactive = no reads after selection
valueKind: amyloid nucleation score

Before answering, review these 5 worked examples.
>>> reportedresult("LVFANSHGFCGKSSLLRVGD")
"inactive"
>>> reportedresult("YLGWDRNRDYEWAIDASRAN")
"inactive"
>>> reportedresult("IEVGIVGNLS")
"inactive"
>>> reportedresult("MTWMPFGPHTAGMMGHLYFG")
-0.398
>>> reportedresult("GLKALILNSSSCCRARFGAA")
0.307

Proceeding to the next sequence to report its amyloid nucleation score.
Measured amyloid nucleation score, YYFRHMLKDNHLVIV : inactive

====

# testSummary: amyloid nucleation score (Sup35N fusion, yeast selection) (log enrichment); library NNK3; higher = more nucleation; inactive = no reads after selection
valueKind: amyloid nucleation score

>>> reportedresult("RDGSQGEFWVLALARLGGTS")
0.311
>>> reportedresult("SNLDFMMGINSFRRVKAEPG")
-0.251
>>> reportedresult("CGVCFYHIAWGSVHDTS")
0.93
>>> reportedresult("SMVGVFQKVFKTITTTYADV")
"inactive"
>>> reportedresult("FLDDSFVFGNRRRWAWGCRG")
"inactive"
>>> reportedresult("CRKEYIFYLFHIIMSQARNI")
"inactive"

For NCRLEESGLVTVNCVGYWWD the substance record lists amyloid nucleation score as inactive

Quick note, amyloid nucleation score for TVSGLMVFVMHNGYS landed at 1.45

// sample FIGLIVLILRVFGYDTMRYL , its amyloid nucleation score was inactive

// LAWVLMHSAKLGLKKRQAWG : amyloid nucleation score value = inactive

amyloid nucleation score recorded for this substance, WWCLFWVSWN , is inactive

amyloid nucleation score for PTIYRMFGVGQMVMN is inactive

The substance listed as LRSWNMLPRWVGRYWIFGGK has a reported amyloid nucleation score of inactive

Recorded amyloid nucleation score (substance FNGEGFSRQG ): -0.457

Field amyloid nucleation score (entry SVSRRGKDR ) reads -0.237

Given item WSVGATWVVAFA , the value recorded as its amyloid nucleation score is inactive

Just so you know, measured amyloid nucleation score for KTKGICSSMLVFC came out at inactive

The reported amyloid nucleation score of the substance CCSSCVWGRVFRSSAMPPRI was inactive

Hey, just so you know, these numbers are from the supplement of paper PMC12042874.
